- EXPERIMENT DESCRIPTION: Log D, 1-octanol/buffer shake flask
- Type: physicochemical
- SETTINGS: 1-octanol/phosphate buffer, pH 7.4; read-out: LogD
Would you mind labelling by logD? At or over 4 is satisfied, under is not satisfied.

- COMPOUND: "O=C(Cc1ccnc(-n2cc(Cl)c3cc(Cl)cc(Cl)c32)n1)N[C@@H]1COC[C@H]1O"
  CLASS NAME: "not satisfied"
- COMPOUND: "Cc1cn(-c2ccc(F)c(CC(=O)NCC(C)(C)O)c2)c2c(Cl)cc(Cl)cc12"
  CLASS NAME: "satisfied"
- COMPOUND: "O=C(Cc1nccc(-n2cc(Cl)c3cc(Cl)cc(Cl)c32)n1)NCCO"
  CLASS NAME: "not satisfied"

Item O=C(Cc1cncc(-n2cc(C(F)(F)F)c3cc(Cl)cc(Cl)c32)c1)N[C@@H]1COC[C@H]1O with logD of 4 or above?
not satisfied

Item O=C(Cc1cc(-n2cc(Cl)c3cc(Cl)cc(Cl)c32)ncn1)N[C@@H]1COC[C@H]1O with logD of 4 or above?
not satisfied

Item O=C(Cc1cncc(-n2cc(C3CC3)c3cc(Cl)cc(Cl)c32)c1)N[C@@H]1COC[C@H]1O with logD of 4 or above?
satisfied

Item CC(C)c1cc(Cl)cc(Cl)c1C(=O)c1ccc(F)c(CC(=O)NCC2(O)CCC2)c1 with logD of 4 or above?
satisfied

Item O=C(Cc1cc(-n2cc(Cl)c3cc(Cl)cc(Cl)c32)cnn1)N[C@@H]1COC[C@H]1O with logD of 4 or above?
not satisfied

Item CC(C)c1cc(Cl)cc(Cl)c1C(=O)c1ccc(F)c(CC(=O)NCC2(O)CC2)c1 with logD of 4 or above?
satisfied

Item O=C(Cc1cncc(-n2cc(Cl)c3cc(Cl)cc(Cl)c32)c1)N[C@@H]1COC[C@H]1O with logD of 4 or above?
not satisfied

====

- EXPERIMENT DESCRIPTION: Kinetic solubility
- Assay type: physicochemical
- SETTINGS: hhbs buffer, aqueous buffer, Table 1; read-out: Kinetic Sol.
Property: solubility kinetic; scope: individual molecules
Your answer should be a plain number; it is taken to be in µM.

Worked examples follow.
- MOLECULE: "CC(C)c1cc(Cl)cc(Cl)c1C(=O)c1ccc(F)c(CC(=O)NCC2(O)CCC2)c1 [Compound 569]"
  OBSERVED: 27
- MOLECULE: "O=C(Cc1cncc(-n2cc(Cl)c3cc(Cl)cc(Cl)c32)c1)NCCO [Compound 649]"
  OBSERVED: 10
- MOLECULE: "CC(C)c1cc(Cl)cc(Cl)c1C(=O)c1ccc(F)c(CC(=O)NCC2(O)CC2)c1 [Compound 573]"
  OBSERVED: 24

Now examine the next entry.
Returns the measured solubility kinetic for the input molecule. Input: O=C(Cc1cncc(-n2cc(Cl)c3cc(Cl)cc(Cl)c32)c1)N[C@@H]1COC[C@H]1O [Compound 661]
40

====

- EXPERIMENT DESCRIPTION: CYP inhibition / time-dependent inhibition, CYP3A4_Testosterone
- Assay type: in vitro ADME
- SETTINGS: human, liver microsomes, role: inhibitor; (−)NADPH pre-incubation; substrate testosterone
EXPERIMENTAL ENDPOINT: IC50 at 0.5 h (µM)
Your answer should be a plain number; it is taken to be in µM.

Returns the measured IC50 at 0.5 h for the input molecule. Input: O=C(Cc1cncc(-n2cc(Cl)c3cc(Cl)cc(Cl)c32)c1)N[C@@H]1COC[C@H]1O [Compound 661]
10.1

====

- TGT: hTRPV1 (Homo sapiens, UniProt Q8NER1)
- Construct: CDS of NM_080704.4, inserted into the multiple cloning site of pcDNA3.1(+); host or cells: CHO/hKv7.2/3
- Sequence (Q8NER1 whole entry): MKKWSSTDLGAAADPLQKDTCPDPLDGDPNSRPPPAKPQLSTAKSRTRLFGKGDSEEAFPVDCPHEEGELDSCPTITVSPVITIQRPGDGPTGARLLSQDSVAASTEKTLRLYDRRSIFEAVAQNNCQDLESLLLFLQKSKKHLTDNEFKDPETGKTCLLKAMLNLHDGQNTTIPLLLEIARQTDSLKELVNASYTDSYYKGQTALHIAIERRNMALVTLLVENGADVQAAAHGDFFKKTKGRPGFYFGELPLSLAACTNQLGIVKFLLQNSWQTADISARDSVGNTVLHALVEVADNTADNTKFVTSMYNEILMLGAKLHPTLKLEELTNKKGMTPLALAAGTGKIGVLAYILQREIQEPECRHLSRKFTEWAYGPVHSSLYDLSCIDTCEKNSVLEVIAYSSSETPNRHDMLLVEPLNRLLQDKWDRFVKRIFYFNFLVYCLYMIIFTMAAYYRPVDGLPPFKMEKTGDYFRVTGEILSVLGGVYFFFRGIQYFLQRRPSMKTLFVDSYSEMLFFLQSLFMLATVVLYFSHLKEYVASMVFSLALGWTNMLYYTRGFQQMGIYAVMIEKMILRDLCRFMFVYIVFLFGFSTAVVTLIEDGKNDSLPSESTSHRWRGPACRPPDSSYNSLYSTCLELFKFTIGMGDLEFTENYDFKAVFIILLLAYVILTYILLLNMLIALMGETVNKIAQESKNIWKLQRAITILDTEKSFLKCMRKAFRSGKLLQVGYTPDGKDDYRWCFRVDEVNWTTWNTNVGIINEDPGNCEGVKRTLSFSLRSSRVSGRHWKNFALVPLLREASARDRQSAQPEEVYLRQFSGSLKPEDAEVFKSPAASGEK
- EXPERIMENT DESCRIPTION: TRPV1 HCS, Fluo-8 calcium flux, capsaicin activation, CHO cells expressing hTRPV1
- Format: cell-based
- SETTINGS: read-out: CAP hTRPV1 IC50 HCS
- Method: Cell culture: Chinese hamster ovary (CHO) cell-line cells with constitutive expression of human hTRPV1 channels (B'SYS GmbH, Switzerland) were cultured in F-12 nutrient mixture (Biological Industries) supplemented with 10% fetal bovine serum (Biological Industries) and 1% penicillin-streptomycin (Biological Industries) in a humidified 5% CO2 incubator at 37° C. To maintain the stable expression of hTRPV1, antibiotic selection (G418 500 μg/ml) was applied. […]
Property: pIC50; scope: individual compounds
Answer as the number alone; pIC50 is minus log10 of concentration in mol/L.

- COMPOUND: "O=C(Cc1cc(-n2cc(Cl)c3cc(Cl)cc(Cl)c32)ccc1F)NCCO [Compound 627]"
  pIC50: 5.72

Now examine the next entry.
Returns the measured pIC50 for the input compound. Input: O=C(Cc1cncc(-n2cc(Cl)c3cc(Cl)cc(Cl)c32)c1)N[C@@H]1COC[C@H]1O [Compound 661]
4.72

====

- EXPERIMENT DESCRIPTION: Plasma protein binding, human
- Format: in vitro ADME
- SETTINGS: read-out: PPB fu (human)
EXPERIMENTAL ENDPOINT: fraction unbound at 4 h, 2 µM
I only need the number, thanks.

Returns the measured fraction unbound at 4 h, 2 µM for the input molecule. Input: O=C(Cc1cncc(-n2cc(Cl)c3cc(Cl)cc(Cl)c32)c1)N[C@@H]1COC[C@H]1O
0.003

====

- EXPERIMENT DESCRIPTION: Human hepatocyte stability
- Assay type: in vitro ADME
- SETTINGS: human hepatocytes
EXPERIMENTAL ENDPOINT: CLint scaled (mL/min/kg)
Your answer should be a plain number; it is taken to be in mL/min/kg.

- COMPOUND: "O=C(Cc1cncc(-n2cc(Cl)c3cc(Cl)cc(Cl)c32)c1)N[C@@H]1COC[C@H]1O [Compound 661]"
  EXPERIMENTAL ENDPOINT: "CLint scaled"
  OBSERVED: 73.8

Now examine the next entry.
Returns the measured CLint scaled for the input compound. Input: O=C(Cc1cc(-n2cc(Cl)c3cc(Cl)cc(Cl)c32)ccc1F)NCCO [Compound 627]
190

====

- TGT: CYP2D6 (Homo sapiens, UniProt P10635)
- Construct: pre-incubation of the human liver microsomes with the test compound; tissue Corning; host or cells: human liver microsomes
- Sequence (P10635 whole entry): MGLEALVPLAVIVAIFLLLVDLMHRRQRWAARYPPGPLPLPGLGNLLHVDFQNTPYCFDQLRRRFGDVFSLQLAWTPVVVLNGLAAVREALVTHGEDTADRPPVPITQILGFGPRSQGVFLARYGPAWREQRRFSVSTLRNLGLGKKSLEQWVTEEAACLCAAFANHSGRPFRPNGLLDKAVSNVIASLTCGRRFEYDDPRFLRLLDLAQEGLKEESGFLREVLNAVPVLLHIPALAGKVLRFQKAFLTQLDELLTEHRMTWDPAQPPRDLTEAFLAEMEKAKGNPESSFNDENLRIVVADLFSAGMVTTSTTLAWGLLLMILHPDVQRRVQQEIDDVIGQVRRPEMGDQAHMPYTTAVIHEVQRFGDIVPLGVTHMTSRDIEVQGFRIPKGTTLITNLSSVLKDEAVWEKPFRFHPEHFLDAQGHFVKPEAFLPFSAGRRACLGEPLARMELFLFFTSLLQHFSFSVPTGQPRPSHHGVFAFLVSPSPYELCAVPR
- EXPERIMENT DESCRIPTION: CYP inhibition / time-dependent inhibition, CYP2D6_Dextromethorphan
- Format: in vitro ADME
- SETTINGS: role: inhibitor; (−)NADPH pre-incubation; substrate dextromethorphan; read-out: IC50 (−)NADPH CYP2D6_Dextromethorphan
EXPERIMENTAL ENDPOINT: IC50 (µM)
Your answer should be a plain number; it is taken to be in µM.

Returns the measured IC50 for the input compound. Input: O=C(Cc1cncc(-n2cc(Cl)c3cc(Cl)cc(Cl)c32)c1)N[C@@H]1COC[C@H]1O [Compound 661]
28.5

====

- EXPERIMENT DESCRIPTION: HepG2 toxicity, ATPlite
- Format: cell-based, human
- SETTINGS: human, hepg2 cells; 48 hours; read-out: HepG2 Toxicity LD50
EXPERIMENTAL ENDPOINT: CC50 at 48 h

Worked examples follow.
- MOLECULE: "Cc1cn(-c2ccc(F)c(CC(=O)NCC(C)(C)O)c2)c2c(Cl)cc(Cl)cc12 [Compound 421]"
  CC50 at 48 h: "> 1 µM"
- MOLECULE: "O=C(Cc1cncc(-n2cc(Cl)c3cc(Cl)cc(Cl)c32)c1)N[C@@H]1COC[C@H]1O [Compound 661]"
  CC50 at 48 h: "> 16.6 µM"

Now examine the next entry.
Returns the measured CC50 at 48 h for the input molecule. Input: O=C(Cc1cc(-n2cc(Cl)c3cc(Cl)cc(Cl)c32)ccc1F)NCCO [Compound 627]
3.37 µM

====

- TGT: hKv7.2/3 (Homo sapiens, UniProt O43525+O43526)
- Construct: host or cells: CHO
- Sequence (O43525 whole entry): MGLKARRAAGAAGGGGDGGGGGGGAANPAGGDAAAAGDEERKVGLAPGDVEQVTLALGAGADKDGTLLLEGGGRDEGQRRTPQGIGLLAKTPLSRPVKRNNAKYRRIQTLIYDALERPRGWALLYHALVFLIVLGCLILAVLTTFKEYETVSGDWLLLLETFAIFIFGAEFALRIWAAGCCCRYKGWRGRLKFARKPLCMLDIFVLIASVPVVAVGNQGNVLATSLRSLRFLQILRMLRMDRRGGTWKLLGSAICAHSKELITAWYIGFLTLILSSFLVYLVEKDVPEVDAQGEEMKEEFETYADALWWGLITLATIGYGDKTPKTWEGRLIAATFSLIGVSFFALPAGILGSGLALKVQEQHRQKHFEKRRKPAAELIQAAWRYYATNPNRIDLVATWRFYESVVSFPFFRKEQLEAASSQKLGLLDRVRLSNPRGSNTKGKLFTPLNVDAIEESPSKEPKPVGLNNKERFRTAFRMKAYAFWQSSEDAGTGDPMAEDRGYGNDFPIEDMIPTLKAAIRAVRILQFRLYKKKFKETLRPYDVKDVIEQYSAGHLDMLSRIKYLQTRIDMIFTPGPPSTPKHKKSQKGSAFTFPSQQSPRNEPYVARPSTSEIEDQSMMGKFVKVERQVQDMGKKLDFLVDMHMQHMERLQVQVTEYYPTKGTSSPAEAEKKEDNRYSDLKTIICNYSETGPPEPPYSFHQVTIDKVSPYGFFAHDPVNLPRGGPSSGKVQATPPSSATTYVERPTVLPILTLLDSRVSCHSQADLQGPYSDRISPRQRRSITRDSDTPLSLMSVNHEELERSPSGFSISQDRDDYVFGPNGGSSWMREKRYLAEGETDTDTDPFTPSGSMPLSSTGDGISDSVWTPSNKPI
- Sequence (O43526 whole entry): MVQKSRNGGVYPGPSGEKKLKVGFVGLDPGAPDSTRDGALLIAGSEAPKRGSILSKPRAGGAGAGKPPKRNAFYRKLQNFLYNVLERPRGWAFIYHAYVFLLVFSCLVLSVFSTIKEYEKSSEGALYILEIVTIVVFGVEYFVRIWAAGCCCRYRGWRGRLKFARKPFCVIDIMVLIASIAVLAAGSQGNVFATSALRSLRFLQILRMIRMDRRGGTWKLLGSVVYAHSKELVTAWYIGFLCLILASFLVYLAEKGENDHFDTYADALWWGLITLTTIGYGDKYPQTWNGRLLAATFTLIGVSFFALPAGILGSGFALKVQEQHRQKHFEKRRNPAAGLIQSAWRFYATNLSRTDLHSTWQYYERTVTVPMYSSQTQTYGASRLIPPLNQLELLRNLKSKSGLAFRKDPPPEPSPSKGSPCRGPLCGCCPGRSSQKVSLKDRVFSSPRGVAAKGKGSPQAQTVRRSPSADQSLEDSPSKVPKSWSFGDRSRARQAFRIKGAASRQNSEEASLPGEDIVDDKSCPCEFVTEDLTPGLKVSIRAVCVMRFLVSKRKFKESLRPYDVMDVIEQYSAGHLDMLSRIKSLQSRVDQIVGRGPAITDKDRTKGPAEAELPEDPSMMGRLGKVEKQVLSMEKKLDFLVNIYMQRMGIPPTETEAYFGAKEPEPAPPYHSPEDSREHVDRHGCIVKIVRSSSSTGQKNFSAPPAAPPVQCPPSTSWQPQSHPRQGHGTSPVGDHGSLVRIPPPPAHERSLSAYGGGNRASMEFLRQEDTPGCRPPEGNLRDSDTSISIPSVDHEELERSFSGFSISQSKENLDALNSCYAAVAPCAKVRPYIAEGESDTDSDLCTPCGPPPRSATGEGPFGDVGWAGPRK
- EXPERIMENT DESCRIPTION: Kv7.2/7.3 HCS, FLIPR potassium (thallium) assay, CHO/hKv7.2/3
- Assay type: cell-based
- SETTINGS: read-out: Kv7.2/7.3 EC50
Property: EC50; scope: individual molecules
Your answer should be a plain number; it is taken to be in nM.

- MOLECULE: "Cc1cn(-c2ccc(F)c(CC(=O)NCC(C)(C)O)c2)c2c(Cl)cc(Cl)cc12"
  UNIT TEXT: "nM"
  EC50: 2100
- MOLECULE: "CC(C)c1cc(Cl)cc(Cl)c1Nc1ccc(F)c(CC(=O)NCC(C)(C)O)c1 [NH91, reference compound]"
  UNIT TEXT: "nM"
  EC50: 700

Now examine the next entry.
Returns the measured EC50 for the input molecule. Input: O=C(Cc1cc(-n2cc(Cl)c3cc(Cl)cc(Cl)c32)ccc1F)NCCO
500
